ASSAY TARGET: EqBuChE (Equus caballus, UniProt P81908)
Sequence (P81908 whole entry): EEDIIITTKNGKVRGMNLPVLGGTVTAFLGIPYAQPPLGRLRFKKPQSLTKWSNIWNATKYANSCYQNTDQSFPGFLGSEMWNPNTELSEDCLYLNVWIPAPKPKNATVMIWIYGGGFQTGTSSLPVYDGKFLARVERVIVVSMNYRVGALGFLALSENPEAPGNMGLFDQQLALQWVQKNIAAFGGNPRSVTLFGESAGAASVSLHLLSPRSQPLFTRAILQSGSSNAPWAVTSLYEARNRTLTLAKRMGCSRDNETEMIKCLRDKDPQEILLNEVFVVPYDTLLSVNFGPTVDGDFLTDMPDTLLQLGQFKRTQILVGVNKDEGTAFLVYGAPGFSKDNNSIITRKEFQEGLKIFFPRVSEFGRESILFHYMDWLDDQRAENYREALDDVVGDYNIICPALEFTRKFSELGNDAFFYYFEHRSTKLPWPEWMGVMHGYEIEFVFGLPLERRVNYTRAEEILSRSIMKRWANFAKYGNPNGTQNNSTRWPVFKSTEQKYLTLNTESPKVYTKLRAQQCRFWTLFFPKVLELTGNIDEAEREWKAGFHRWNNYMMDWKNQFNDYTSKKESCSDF
METHOD SUMMARY: biochemical
EXPERIMENTAL PARAMETERS: EqBuChE IC50
Labelling: IC50 reported below 2 µM becomes Condition met; at or above becomes Condition not met.

Ask: Does COc1ccc2c(c1)CCC(CC1C=CN(Cc3ccccc3C(F)(F)F)C=C1C(C)=O)C2=O (centres unmarked) [Compound 67] have IC50 strictly under 2 µM?
Reply: Condition not met

Ask: And then COc1ccc2c(c1)CCC(Cc1cc[n+](Cc3ccccc3F)cc1C(C)=O)C2=O (centres unmarked) [Compound 127] , what is it?
Reply: Condition met

Ask: And then COc1ccc2c(c1)CCC(Cc1cc[n+](Cc3cccc(F)c3)cc1C(C)=O)C2=O (centres unmarked) [Compound 128] , what is it?
Reply: Condition met

Ask: And then CC(=O)c1c[n+](Cc2ccccc2C)ccc1CC1Cc2cc3c(cc2C1=O)OCO3 (centres unmarked) [Compound 139] , what is it?
Reply: Condition met

Ask: And then COc1ccc2c(c1)CCC(CC1C=CN(Cc3ccccc3C)C=C1C(C)=O)C2=O (centres unmarked) [Compound 59] , what is it?
Reply: Condition not met

---

ASSAY TARGET: EqBuChE (Equus caballus)
METHOD SUMMARY: biochemical
EXPERIMENTAL PARAMETERS: EqBuChE IC50
READOUT LABEL: pIC50
Scale for pIC50: -log10 of concentration given in mol/L; no unit attached.

Ask: Which pIC50 value is on record for COc1ccc2c(c1)CCC(CC1C=CN(Cc3ccccc3C)C=C1C(C)=O)C2=O (racemic) [Compound 160] ?
Reply: 5.08

Ask: And then COc1ccc2c(c1)CCC(Cc1cc[n+](Cc3cccc(C)c3)cc1C(C)=O)C2=O (centres unmarked) [Compound 120] , what is it?
Reply: 6.22

Ask: And then COc1ccc2c(c1)CCC(CC1C=CN(Cc3ccccc3Cl)C=C1C(C)=O)C2=O (centres unmarked) [Compound 157] , what is it?
Reply: 5.24

Ask: And then COc1ccc2c(c1)CCC(CC1C=CN(Cc3ccccc3C)C=C1C(C)=O)C2=O (single isomer, unassigned) [Compound 160-B] , what is it?
Reply: 5.25

Ask: And then COc1cc2c(cc1OC)C(=O)C(Cc1cc[n+](Cc3cccc(Cl)c3)cc1C(C)=O)C2 (centres unmarked) [Compound 144] , what is it?
Reply: 5.48

Ask: And then COc1cc2c(cc1OC)C(=O)C(Cc1cc[n+](Cc3cccc(C)c3)cc1Br)C2 (centres unmarked) [Compound 146] , what is it?
Reply: 5.41

Ask: And then COc1ccc2c(c1)CC(CC1C=CN(Cc3ccccc3C)C=C1C(C)=O)C2=O (centres unmarked) [Compound 164] , what is it?
Reply: 5.26

Ask: And then COc1ccc2c(c1)CCC(Cc1cc[n+](Cc3cccc([N+](=O)[O-])c3)cc1C(C)=O)C2=O (centres unmarked) [Compound 123] , what is it?
Reply: 5.88

Data origin: patent US9376387B2
